# Test system: Liver microsomes
# procedureText: Metabolic stability in human hepatocyte microsomes
# Type: ADME, Microsome
measure: Stability (%)

Reference set, count: 4
[[record]]
molecule = "CCO[C@@H](Cc1ccc(OCCN2CCC(C)(C)c3cc(/C(=N/OCc4ccccc4)c4ccccc4)ccc32)cc1)C(=O)O"
observedvalue = 59

[[record]]
molecule = "CCO[C@@H](Cc1ccc(OCCc2ccc(OS(C)(=O)=O)cc2)cc1)C(=O)O [TESAGLITAZAR]"
observedvalue = 100

[[record]]
molecule = "C=CCO/N=C(\\c1ccccc1)c1ccc2c(c1)C(C)(C)CCN2CCOc1ccc(C[C@H](OCC)C(=O)O)cc1"
observedvalue = 47

[[record]]
molecule = "CO/N=C(\\c1ccccc1)c1ccc2c(c1)C(C)(C)CCN2CCOc1ccc(C[C@H](OCC(F)(F)F)C(=O)O)cc1"
observedvalue = 27


(1) CN(CCOc1ccc(CC2SC(=O)NC2=O)cc1)c1ccccn1 (configuration not stated) [ROSIGLITAZONE]
(2) CCO[C@@H](Cc1ccc(OCCN2CCC(C)(C)c3cc(/C(=N/OCC4CC4)c4ccccc4)ccc32)cc1)C(=O)O
(3) CCO[C@@H](Cc1ccc(OCCN2CCC(C)(C)c3cc(/C(=N/OC)c4ccccc4)ccc32)cc1)C(=O)O
Sort the molecules on Stability; start with the lowest figure. # the answer lists labels in the order requested
3, 1, 2
(3: 0%, 1: 21%, 2: 84%)
